All values here come from patent EP1215499A1.

For each entry below, report its Activity (mU/ml) value.
- target or test system: miniplasmin (Homo sapiens, UniProt P00747)
- Construct: 38kDa (Kringle 5 + L chain); the 12kDa protein of human miniplasmin includes a kringle 5 that begins with V^441; host or cells: no expression host
- Sequence (P00747 481-560): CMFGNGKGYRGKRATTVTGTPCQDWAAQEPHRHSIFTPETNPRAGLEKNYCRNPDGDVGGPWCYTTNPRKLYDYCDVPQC
- Sequence (P00747 581-810): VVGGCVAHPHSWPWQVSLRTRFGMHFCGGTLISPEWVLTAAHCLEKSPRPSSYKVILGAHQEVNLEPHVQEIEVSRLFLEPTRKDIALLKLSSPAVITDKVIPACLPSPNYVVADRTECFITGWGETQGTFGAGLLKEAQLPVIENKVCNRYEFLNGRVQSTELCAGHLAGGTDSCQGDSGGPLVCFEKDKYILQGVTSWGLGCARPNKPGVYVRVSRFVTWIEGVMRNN
- assay details: Substrate specificity of human miniplasmin (cleavage of fluorescent MCA synthetic substrates)
- Format: biochemical
- condition notes: cleavage of the named substrate by human miniplasmin
*1 amine or outer side, *2 acyl side, *3 side chain or, on linkers, in order; H or OH if unused. Where a SMILES comes first, the peptide text is derived from it. The star is where a group is joined. AMC = Cc1cc(=O)oc2cc(N*)ccc12; Suc = O=C(CCC(=O)[*:2])[*:1]; Boc = CC(C)(C)OC(=O)*
Field: value (include unit after the number)

Ask: Which Activity (mU/ml) is listed for Cc1cc(=O)oc2cc(NC(=O)[C@H](CCCNC(=N)N)NC(=O)[C@@H](NC(=O)[C@H](CC(C)C)NC(=O)OC(C)(C)C)[C@@H](C)O)ccc12 [Boc-Leu-Thr-Arg-MCA] (Boc-Leu-Thr-Arg-{AMC}) ?
Reply: 3.4 mU/ml

Ask: Which Activity (mU/ml) is listed for Cc1cc(=O)oc2cc(NC(=O)[C@H](CCCNC(=N)N)NC(=O)[C@H](C)NC(=O)[C@H](CCC(N)=O)NC(=O)OC(C)(C)C)ccc12 [Boc-Gln-Ala-Arg-MCA] (Boc-Gln-Ala-Arg-{AMC}) ?
Reply: 32.3 mU/ml

Ask: Which Activity (mU/ml) is listed for Cc1cc(=O)oc2cc(NC(=O)[C@H](CCCCN)NC(=O)[C@H](CCCCN)NC(=O)[C@H](CCC(=O)O)NC(=O)OC(C)(C)C)ccc12 [Boc-Glu-Lys-Lys-MCA] (Boc-Glu-Lys-Lys-{AMC}) ?
Reply: 50.3 mU/ml

Ask: Which Activity (mU/ml) is listed for Cc1cc(=O)oc2cc(NC(=O)[C@H](Cc3ccccc3)NC(=O)[C@@H]3CCCN3C(=O)[C@H](C)NC(=O)[C@H](C)NC(=O)CCC(=O)O)ccc12 [Suc-Ala-Ala-Pro-Phe-MCA] (Suc-AAPF-{AMC}) ?
Reply: 0.0 mU/ml

Ask: Which Activity (mU/ml) is listed for Cc1cc(=O)oc2cc(NC(=O)[C@H](CCCNC(=N)N)NC(=O)c3ccccc3)ccc12 ?
Reply: 0.0 mU/ml

---

- target or test system: miniplasmin (Homo sapiens)
- Construct: 38kDa (Kringle 5 + L chain); the 12kDa protein of human miniplasmin includes a kringle 5 that begins with V^441; host or cells: no expression host
- assay details: Substrate specificity of human miniplasmin (cleavage of fluorescent MCA synthetic substrates)
- Format: biochemical
- condition notes: cleavage of the named substrate by human miniplasmin
Where a SMILES comes first, the peptide text is derived from it. The star is where a group is joined. AMC = Cc1cc(=O)oc2cc(N*)ccc12; Boc = CC(C)(C)OC(=O)*
result type: Activity (mU/ml)
Numeric only. Scale: mU/ml

Ask: Which Activity (mU/ml) is listed for Cc1cc(=O)oc2cc(NC(=O)[C@H](CCCNC(=N)N)NC(=O)[C@@H]3CCCN3C(=O)CNC(=O)[C@H](C)NC(=O)OC(C)(C)C)ccc12 [Boc-Ala-Gly-Pro-Arg-MCA] (Boc-AGPR-{AMC}) ?
Reply: 2.5

Ask: Which Activity (mU/ml) is listed for Cc1cc(=O)oc2cc(NC(=O)[C@H](CCCNC(=N)N)NC(=O)CNC(=O)[C@H](CCC(N)=O)NC(=O)OC(C)(C)C)ccc12 [Boc-Gln-Gly-Arg-MCA] (Boc-Gln-Gly-Arg-{AMC}) ?
Reply: 8.1

Ask: Which Activity (mU/ml) is listed for Cc1cc(=O)oc2cc(NC(=O)[C@H](CCCNC(=N)N)NC(=O)[C@H](CCCNC(=N)N)NC(=O)[C@H](CCC(N)=O)NC(=O)OC(C)(C)C)ccc12 [Boc-Gln-Arg-Arg-MCA] (Boc-Gln-Arg-Arg-{AMC}) ?
Reply: 16.1

Ask: Which Activity (mU/ml) is listed for Cc1cc(=O)oc2cc(NC(=O)[C@H](CCCNC(=N)N)NC(=O)[C@H](CO)NC(=O)[C@H](Cc3ccccc3)NC(=O)OC(C)(C)C)ccc12 [Boc-Phe-Ser-Arg-MCA] (Boc-Phe-Ser-Arg-{AMC}) ?
Reply: 5.0

Ask: Which Activity (mU/ml) is listed for Cc1cc(=O)oc2cc(NC(=O)[C@H](CCCNC(=N)N)NC(=O)[C@H](CCCNC(=N)N)NC(=O)[C@H](CC(C)C)NC(=O)OC(C)(C)C)ccc12 [Boc-Leu-Arg-Arg-MCA] (Boc-Leu-Arg-Arg-{AMC}) ?
Reply: 3.1
